Target: BmEcR (GAL4-EcR DEF with VP16-RXR-USP chimera) (Bombyx mori, UniProt P49881)
Sequence (P49881 other isoform, or with tags, fused parts or gaps, change not shown): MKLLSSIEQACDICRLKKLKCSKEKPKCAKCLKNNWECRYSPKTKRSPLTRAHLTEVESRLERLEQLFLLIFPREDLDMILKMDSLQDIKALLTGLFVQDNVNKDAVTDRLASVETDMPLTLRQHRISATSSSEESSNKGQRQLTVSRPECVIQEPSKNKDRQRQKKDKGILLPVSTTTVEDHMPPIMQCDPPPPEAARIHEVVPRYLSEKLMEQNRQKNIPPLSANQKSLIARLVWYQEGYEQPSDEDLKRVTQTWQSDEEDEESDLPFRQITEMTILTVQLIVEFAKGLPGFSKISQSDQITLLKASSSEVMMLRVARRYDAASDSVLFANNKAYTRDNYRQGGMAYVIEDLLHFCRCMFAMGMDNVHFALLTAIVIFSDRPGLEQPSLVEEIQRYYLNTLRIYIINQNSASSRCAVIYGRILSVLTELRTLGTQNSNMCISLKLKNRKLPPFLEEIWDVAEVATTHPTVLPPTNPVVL
Assay: Two-hybrid gene switch assay, luciferase reporter, BmEcR, mouse NIH3T3 cells
Type: cell-based
Settings: FIG. 13A/13B; BmEcR, GAL4-EcR(DEF) with VP16-RXR-USP chimera; read-out: EC50
Form field: EC50 (one value per entry).
measured_parameter: EC50

molecule=CC(C)(O)CC[C@@H](O)[C@](C)(O)[C@H]1CC[C@@]2(O)C3=CC(=O)[C@@H]4C[C@H](O)[C@@H](O)C[C@]4(C)[C@H]3CC[C@]12C tgt="BmEcR (GAL4-EcR DEF with VP16-RXR-USP chimera) (Bombyx mori, UniProt P49881)" recorded_measurement="> 33 µM"
molecule="CC(C)(O)CC[C@@H](O)[C@](C)(O)[C@H]1CC[C@@]2(O)C3=CC(=O)[C@H]4C[C@@H](O)[C@@H](O)C[C@]4(C)[C@H]3CC[C@]12C [(5a-H)-20-hydroxyecdysone]" tgt="BmEcR (GAL4-EcR DEF with VP16-RXR-USP chimera) (Bombyx mori, UniProt P49881)" recorded_measurement="> 33 µM"
